Data credit: the kinase profiling compilation of Christmann-Franck et al. (2016)

Exercise: state measured kinase still bound, per cent of control for each of the compounds provided.
biological target: PDPK1 (human); assay: KINOMEscan competition binding; conditions: compound 10.0 µM
Numbers only, in %.

Consider the following illustrative entries.
[[record]]
compound = "COc1cc(C)c(Sc2cnc(NC(=O)c3ccc(CNC(C)C(C)C)cc3)s2)cc1C(=O)N1CCN(C(C)=O)CC1 (configuration not stated)"
reported_result = 100

[[record]]
compound = "CCN(CCO)CCCOc1ccc2c(Nc3cc(CC(=O)Nc4cccc(F)c4)[nH]n3)ncnc2c1"
reported_result = 100

[[record]]
compound = "CCOc1cc(N2CCC(O)CC2)ccc1Nc1ncc2c(n1)N(C)c1ccccc1C(=O)N2C"
reported_result = 100

[[record]]
compound = "N#Cc1cc(-c2ccnc(Nc3ccc(-n4cnc(-c5cccnc5)n4)cc3)n2)cc(N2CCOCC2)c1"
reported_result = 100


Record kinase still bound, per cent of control per entry; entries follow.
1. COc1cc(N2CCC(C(N)=O)CC2)ccc1Nc1nc(N)c(Cl)c(Nc2ccccc2S(=O)(=O)C(C)C)n1
2. CC1=C(C(=O)Nc2cc3cn[nH]c3cc2F)C(c2ccc(C(F)(F)F)cc2)CC(=O)N1 (configuration not stated)
3. COc1ccc(N(C(=O)Oc2cc(C(=O)Nc3cccc(C(F)(F)F)c3)ccc2C)c2ccnc(Nc3ccc(N4CCN(C)CC4)cc3)n2)c(OC)c1
4. C=CC(=O)Nc1ccc(C(=O)c2sc(Nc3ccc(N4CCN(C)CC4)cc3OC)nc2N)cc1
5. CCN1CCN(Cc2ccc(NC(=O)c3ccc(C)c(/C=C/c4cnc5[nH]ccc5c4OC)c3)cc2C(F)(F)F)CC1

1. 100
2. 100
3. 100
4. 100
5. 65

Record kinase still bound, per cent of control per entry; entries follow.
1. CNC(=O)Nc1ccc(-c2nc(N3CC4CCC(C3)O4)c3cnn(C4CCC5(CC4)OCCO5)c3n2)cc1
2. CCCS(=O)(=O)Nc1ccc(F)c(C(=O)c2c[nH]c3ncc(Cl)cc23)c1F
3. COc1cc2c(Nc3ccc(NC(=O)c4ccccc4)cc3)ncnc2cc1OCCCN1CCOCC1

1: 76; 2: 85; 3: 100
